Catalogue of Activity values
Tested on: MEF
assay: Cytotoxicity against mouse PARP2 deficient MEF cells expressing PARP1 assessed as reduction in cell viability at 0.016 to 100 uM after 4 to 7 days by cell-titer glo assay
Assay type: cell-based
recorded.metric: Activity

| molecule.smiles | recorded.metric | readout.value |
| --- | --- | --- |
| O=C(c1cc(Cc2n[nH]c(=O)c3ccccc23)ccc1F)N1CC2(CNC2)C1 | Activity | < 50% |
| O=C(c1cc(Cc2n[nH]c(=O)c3ccccc23)ccc1F)N1CCC12CNC2 | Activity | < 50% |
| O=C(c1cc(Cc2n[nH]c(=O)c3ccccc23)ccc1F)N1CCC2(CNC2)C1 | Activity | < 50% |
| O=C(c1cc(Cc2n[nH]c(=O)c3ccccc23)ccc1F)N1CCC2(CCNCC2)C1 | Activity | < 50% |

###

assay: Safety index, ratio compound EC50 to olaparib EC50 for BRCA1 deficient human UWB1.289 cells
Type: ADME
cond: BRCA1-deficient UWB1.289 cells, read-out: Ratio EC50
recorded.metric: selectivity ratio

| compound | readout.value |
| --- | --- |
| O=C(c1cc(Cc2n[nH]c(=O)c3ccccc23)ccc1F)N1CC2(C1)CN(C(=O)C1CC1)C2 | 7 |
| CC(C)(C)OC(=O)N1CCC2(CC1)CCN(C(=O)c1cc(Cc3n[nH]c(=O)c4ccccc34)ccc1F)C2 | 20 to 40 |
| CC(C)(C)OC(=O)N1CCC2(CCN(C(=O)c3cc(Cc4n[nH]c(=O)c5ccccc45)ccc3F)C2)C1 (stereo not drawn) | 20 to 40 |
